- Test system: T47D
- METHOD: NCI tumour cell line growth inhibition, 48 h
Activity calls are given as the source filed them. Rule as the data show it: active = GI50 up to about 1.1 µM and inactive = higher.
Use one of these outcomes when replying: active, inactive

Solved entries (count: 5):
[[record]]
compound = "CN(C)C(=S)/N=c1\\ssc(=S)n1Cc1cccs1"
classification = "inactive"

[[record]]
compound = "CC(=O)O[C@H]1CC[C@@]2(C)C(=CC[C@@H]3[C@@H]2CC[C@]2(C)c4nc(Cl)ccc4C[C@@H]32)C1"
classification = "inactive"

[[record]]
compound = "Sc1ccc2ccccc2c1CNCc1ccccc1"
classification = "inactive"

[[record]]
compound = "Cn1c2ccccc2c2c3c(=O)[nH][nH]c(=O)c3c3c4ccccc4n(C)c3c21"
classification = "active"

[[record]]
compound = "C[C@@H](O)C(=O)N1[C@@H]2CC3CC[C@]2(CS1(=O)=O)C3(C)C"
classification = "inactive"


For O=c1c(Cl)cc2nc3ccccc3sc-2c1Cl , which call appears in the assay record?
inactive

Identify the outcome logged in this assay for the compound shown: CS(=O)(=O)N1CC(CCl)c2ccc(NO)cc21 (stereo not drawn)
inactive

So what was the verdict on CC(C)(CCc1nc2ccccc2[nH]1)C(=O)O in this test?
inactive

Please share the test call associated with O=c1oc2ccc([N+](=O)[O-])cc2cc1Br .
inactive

Per the records of this test, what outcome belongs to CC(=N\N=C\c1ccccn1)/C(C)=N/N=C(C)/C(C)=N/N=C/c1ccccn1 ?
inactive

Any idea what this test logged for CC(C)Cn1cnc2c(SCc3ccccn3)nc(N)nc21 ?
inactive

Hello, I am checking results. What call was entered for CC1(C)C(=O)/C(=C/c2ccccc2)C(C)(C)C1(C)C ?
inactive

Outcome? COC(=O)c1nc2c(C)c(O)c(O)c([C@H](C)CCC=C(C)C)c2o1
inactive

----------
- Tested on: SK-MEL-28
- METHOD: NCI tumour cell line growth inhibition, 48 h
Active and inactive are the calls of the source. Cut-off read from the data, not from the text of the source: active = GI50 up to about 1.1 µM and inactive = higher.
Below: a set of entries, each annotated with reported GI50.

[[record]]
compound = "CC(=O)C1C(=O)C(=O)N(c2ccccc2N2C(=O)C(=O)C(C(C)=O)C2=O)C1=O (stereo unspecified)"
measured_value = "> 100 µM (inactive)"

[[record]]
compound = "Cc1cc(S(=O)(=O)Nc2cc(N)n[nH]2)c(SCc2nc(N)nc(N(C)C)n2)cc1Cl"
measured_value = "> 10 µM (inactive)"

[[record]]
compound = "Cn1nc(-c2ccccc2)c2c(/C=C/c3ccccc3)onc2c1=O"
measured_value = "> 100 µM (inactive)"

[[record]]
compound = "CC(=O)Oc1cc(OC(C)=O)c2c(=O)c3ccccc3[nH]c2c1"
measured_value = "54.6 µM (inactive)"

[[record]]
compound = "Cn1c(=O)c2nc(CCCCc3nc4ccccc4[nH]3)[nH]c2n(C)c1=O"
measured_value = "> 100 µM (inactive)"

[[record]]
compound = "COc1ccc(C[C@H]2COC(=O)[C@@H]2Cc2ccc(O)cc2)cc1OC"
measured_value = "> 100 µM (inactive)"

[[record]]
compound = "NCC(=O)Nc1ccc(S(=O)(=O)O)c2cc(S(=O)(=O)O)cc(S(=O)(=O)O)c12"
measured_value = "> 100 µM (inactive)"

[[record]]
compound = "O=P(Nc1ccc(Cl)cc1)(Oc1ccccc1)N(CCCl)CCCl (stereo unspecified)"
measured_value = "> 100 µM (inactive)"

[[record]]
compound = "CCSc1s/c(=N/c2ccc(/N=c3\\sc(C)c(SC)s3)cc2)sc1-c1ccc(C)cc1"
measured_value = "> 100 µM (inactive)"

[[record]]
compound = "O=[N+]([O-])c1cc(-[n+]2cc([O-])on2)ccc1Cl"
measured_value = "16.1 µM (inactive)"


Return reported GI50. Input compound: CCCCN(C)CC(C(C)=O)C(c1ccccc1)c1c(O)c2ccccc2oc1=O (stereo unspecified)
> 100 µM (inactive)

Supply GI50 value. Item: C=C1CN=C(Nc2ccc(F)cc2F)S1
> 100 µM (inactive)

Output GI50 of O=c1c(Cl)cc2nc3ccccc3sc-2c1Cl
18.1 µM (inactive)

Provide only the value of recorded GI50 for Cc1cc([N+](=O)[O-])ccc1/N=N/C(=O)NNc1ccc([N+](=O)[O-])cc1C
16.4 µM (inactive)
